Target: NAD-dependent protein deacetylase sirtuin-1 (Homo sapiens) (UniProt Q96EB6)
Sequence (whole entry): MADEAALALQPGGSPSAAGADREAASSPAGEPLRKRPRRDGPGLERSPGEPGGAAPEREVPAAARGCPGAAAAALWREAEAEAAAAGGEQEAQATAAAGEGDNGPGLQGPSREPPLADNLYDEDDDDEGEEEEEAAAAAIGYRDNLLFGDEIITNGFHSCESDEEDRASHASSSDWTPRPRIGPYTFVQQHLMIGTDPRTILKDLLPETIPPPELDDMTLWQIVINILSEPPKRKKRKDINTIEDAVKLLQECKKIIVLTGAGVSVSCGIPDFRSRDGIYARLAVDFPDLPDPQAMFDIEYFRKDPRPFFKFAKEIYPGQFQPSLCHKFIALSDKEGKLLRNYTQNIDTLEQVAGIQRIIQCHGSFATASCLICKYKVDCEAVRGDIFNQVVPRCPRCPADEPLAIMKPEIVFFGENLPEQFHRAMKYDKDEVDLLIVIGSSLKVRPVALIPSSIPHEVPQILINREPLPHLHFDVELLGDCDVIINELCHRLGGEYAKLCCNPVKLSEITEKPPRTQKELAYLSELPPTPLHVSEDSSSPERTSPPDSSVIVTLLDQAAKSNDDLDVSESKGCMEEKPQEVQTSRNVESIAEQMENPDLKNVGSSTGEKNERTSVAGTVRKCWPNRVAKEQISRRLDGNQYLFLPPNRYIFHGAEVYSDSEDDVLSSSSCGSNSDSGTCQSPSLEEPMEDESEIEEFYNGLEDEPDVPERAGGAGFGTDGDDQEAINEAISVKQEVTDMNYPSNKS
Assay Summary: Substrate activity at human N-terminal His-tagged SIRT1 (183 to 664 residues) expressed in Escherichia coli at 50 uM measured after 2 hrs in presence of NAD+ and trypsin by fluorescence assay
Where a SMILES comes first, the peptide text is derived from it. The star is where a group is joined. AMC = Cc1cc(=O)oc2cc(N*)ccc12; Decanoyl = CCCCCCCCCC(=O)*
Reported Property: Activity (RFU)

[
  {
    "Compound": "CCCCCCCCCC(=O)NCCCC[C@H](NC(=O)[C@H](CCC(N)=O)NC(=O)[C@@H](NC(=O)[C@H](CCCCN)NC(C)=O)C(C)C)C(=O)Nc1ccc2c(C)cc(=O)oc2c1 (Ac-KVQK(Decanoyl)-{AMC})",
    "Numeric Value": 1.1
  }
]

(I) CC(=O)NCCCC[C@H](NC(=O)[C@H](CCCNC(=N)N)NC(=O)[C@H](C)NC(=O)[C@@H](NC(C)=O)[C@@H](C)O)C(=O)Nc1ccc2c(C)cc(=O)oc2c1 (Ac-TARK(Ac)-{AMC})
(II) CCCCCCCCCC(=O)NCCCC[C@H](NC(=O)[C@H](CCCNC(=N)N)NC(=O)[C@H](C)NC(=O)[C@@H](NC(C)=O)[C@@H](C)O)C(=O)Nc1ccc2c(C)cc(=O)oc2c1 (Ac-TARK(Decanoyl)-{AMC})
[in] // max by Activity over [ I , II ] Kindly give the label for the entry you pick.
[out] II
